Test system: C6
experiment: Antiproliferative activity against rat C6 cells assessed as inhibition of cell proliferation measured after 72 hrs by CCK8 assay
Assay type: functional, cell-based
recorded conditions: C6, 72 h
readout label: IC50 (nM)
Quick note: give the figure in nM, leave out the unit.

IC50 in this record for COCCN1CCN(c2ccc(OC)cc2C(=O)Nc2ccc(CNC(=O)OCc3cccnc3)cc2)CC1 : 1050

IC50 in this record for COCCN1CCN(c2ccc(F)cc2C(=O)Nc2ccc(CNC(=O)OCc3cccnc3)cc2)CC1 : 150

IC50 in this record for COCCN1CCN(c2cccc(F)c2C(=O)Nc2ccc(CNC(=O)OCc3cccnc3)cc2)CC1 : 790

IC50 in this record for COCCN1CCN(c2ccccc2C(=O)Nc2ccc(CNC(=O)OCc3cccnc3)cc2)CC1 : 240

IC50 in this record for COCCN1CCN(c2cc(F)ccc2C(=O)Nc2ccc(CNC(=O)OCc3cccnc3)cc2)CC1 : 220

IC50 in this record for CCCN1CCN(c2ccccc2C(=O)Nc2ccc(CNC(=O)OCc3cccnc3)cc2)CC1 : 360

IC50 in this record for O=C(NCc1ccc(NC(=O)c2ccccc2N2CCN(C3CCC3)CC2)cc1)OCc1cccnc1 : 1030

IC50 in this record for CS(=O)(=O)N1CCN(c2ccccc2C(=O)Nc2ccc(CNC(=O)OCc3cccnc3)cc2)CC1 : 850

----------
experiment: Cmax in Sprague-Dawley rat brain at 100 mg/kg, ip and measured upto 240 mins by LC-MS analysis
Type: ADME, organism-based
Design: time < 240 min, dose 100 mg/kg, route ip
readout label: Cmax (µg/mL)
Quick note: give the figure in µg/mL, leave out the unit.

Cmax in this record for COCCN1CCN(c2ccc(F)cc2C(=O)Nc2ccc(CNC(=O)OCc3cccnc3)cc2)CC1 : 92.5

----------
experiment: AUC (0 to t) in Sprague-Dawley rat brain at 100 mg/kg, ip and measured upto 240 mins by LC-MS analysis
Assay type: ADME, organism-based
Set-up: dose 100 mg/kg, time < 240 min, route ip
readout label: AUC(0-t) at 4 h (ng·h/mL)
Quick note: give the figure in ng·h/mL, leave out the unit.

AUC(0-t) at 4 h in this record for COCCN1CCN(c2ccc(F)cc2C(=O)Nc2ccc(CNC(=O)OCc3cccnc3)cc2)CC1 : 97000

----------
experiment: AUC (0 to infinity) in Sprague-Dawley rat plasma at 100 mg/kg, ip and measured upto 240 mins by LC-MS analysis
Assay type: ADME, organism-based
Set-up: time < 240 min, dose 100 mg/kg, route ip
readout label: AUC(0-inf) (ng·h/mL)
Quick note: give the figure in ng·h/mL, leave out the unit.

AUC(0-inf) in this record for COCCN1CCN(c2ccc(F)cc2C(=O)Nc2ccc(CNC(=O)OCc3cccnc3)cc2)CC1 : 95500

----------
experiment: Tmax in Sprague-Dawley rat plasma at 100 mg/kg, ip and measured upto 240 mins by LC-MS analysis
Assay type: ADME, organism-based
readout label: Tmax (min)
Quick note: give the figure in min, leave out the unit.

Tmax in this record for COCCN1CCN(c2ccc(F)cc2C(=O)Nc2ccc(CNC(=O)OCc3cccnc3)cc2)CC1 : 30

----------
experiment: Cmax in Sprague-Dawley rat plasma at 100 mg/kg, ip and measured upto 240 mins by LC-MS analysis
Assay type: ADME, organism-based
Design: dose 100 mg/kg, time < 240 min, route ip
readout label: Cmax

Cmax in this record for COCCN1CCN(c2ccc(F)cc2C(=O)Nc2ccc(CNC(=O)OCc3cccnc3)cc2)CC1 : 71.7 µg/mL

----------
experiment: Half life in Sprague-Dawley rat brain at 100 mg/kg, ip and measured upto 240 mins by LC-MS analysis
Format: ADME, organism-based
readout label: half-life

half-life in this record for COCCN1CCN(c2ccc(F)cc2C(=O)Nc2ccc(CNC(=O)OCc3cccnc3)cc2)CC1 : 43.8 min

----------
Task for the reader: assign each of the following compounds its reported pIC50.
experiment: Antiproliferative activity against human U-87 MG cells assessed as inhibition of cell proliferation measured after 72 hrs by CCK8 assay
Assay type: functional, cell-based, U-87MG ATCC
In plain terms, pIC50 is the concentration in mol/L turned into minus its base-10 logarithm.

pIC50 in this record for O=C(NCc1ccc(NC(=O)c2ccccc2N2CCN(C3COC3)CC2)cc1)OCc1cccnc1 : 6.31

pIC50 in this record for COCCN1CCN(c2ccc(Br)cc2C(=O)Nc2ccc(CNC(=O)OCc3cccnc3)cc2)CC1 : 5.58

pIC50 in this record for CS(=O)(=O)N1CCN(c2ccccc2C(=O)Nc2ccc(CNC(=O)OCc3cccnc3)cc2)CC1 : 5.99

pIC50 in this record for COCCN1CCN(c2ccc(N)cc2C(=O)Nc2ccc(CNC(=O)OCc3cccnc3)cc2)CC1 : 6.25

pIC50 in this record for O=C(NCc1ccc(NC(=O)c2ccccc2N2CCN(C3CC3)CC2)cc1)OCc1cccnc1 : 5.98

pIC50 in this record for COCCN1CCN(c2ccccc2C(=O)Nc2ccc(CNC(=O)OCc3cccnc3)cc2)CC1 : 6.40

pIC50 in this record for COCCN1CCN(c2ccc(Cl)cc2C(=O)Nc2ccc(CNC(=O)OCc3cccnc3)cc2)CC1 : 6.00

pIC50 in this record for COCCN1CCN(c2cc(C)ccc2C(=O)Nc2ccc(CNC(=O)OCc3cccnc3)cc2)CC1 : 6.28

pIC50 in this record for COCCN1CCN(c2c(C)cccc2C(=O)Nc2ccc(CNC(=O)OCc3cccnc3)cc2)CC1 : 6.00

pIC50 in this record for O=C(NCc1ccc(NC(=O)c2ccccc2N2CCN(CCO)CC2)cc1)OCc1cccnc1 : 6.19

pIC50 in this record for Nc1ccccc1NC(=O)c1ccc(CNC(=O)OCc2cccnc2)cc1 [ENTINOSTAT] : 5.36

pIC50 in this record for COCCN1CCN(c2cc(F)ccc2C(=O)Nc2ccc(CNC(=O)OCc3cccnc3)cc2)CC1 : 6.28

pIC50 in this record for COCCN1CCN(c2ccc(C)cc2C(=O)Nc2ccc(CNC(=O)OCc3cccnc3)cc2)CC1 : 5.72

pIC50 in this record for COCCN1CCN(c2ccc(OC)cc2C(=O)Nc2ccc(CNC(=O)OCc3cccnc3)cc2)CC1 : 5.46

pIC50 in this record for CCN1CCN(c2ccccc2C(=O)Nc2ccc(CNC(=O)OCc3cccnc3)cc2)CC1 : 6.37

pIC50 in this record for O=C(NCc1ccc(NC(=O)c2ccccc2N2CCN(CCF)CC2)cc1)OCc1cccnc1 : 6.39

pIC50 in this record for COCCN1CCN(c2ccc(C(F)(F)F)cc2C(=O)Nc2ccc(CNC(=O)OCc3cccnc3)cc2)CC1 : 5.07

pIC50 in this record for O=C(NCc1ccc(NC(=O)c2ccccc2N2CCN(CC3CC3)CC2)cc1)OCc1cccnc1 : 5.97

----------
System: U-251
experiment: Antiproliferative activity against human U-251 cells assessed as inhibition of cell proliferation measured after 72 hrs by CCK8 assay
Assay type: functional, cell-based
recorded conditions: U-251, 72 h
In plain terms, low IC50, meaning strictly below 5 µM, gives Y, and everything else gives N.

Identify whether the molecule COCCN1CCN(c2cc(C)ccc2C(=O)Nc2ccc(CNC(=O)OCc3cccnc3)cc2)CC1 records IC50 below 5 µM.
Y

Identify whether the molecule COCCN1CCN(c2ccc(F)cc2C(=O)Nc2ccc(CNC(=O)OCc3cccnc3)cc2)CC1 records IC50 below 5 µM.
Y

Identify whether the molecule COCCN1CCN(c2ccccc2C(=O)Nc2ccc(CNC(=O)OCc3cccnc3)cc2)CC1 records IC50 below 5 µM.
Y

Identify whether the molecule COCCN1CCN(c2ccc(Br)cc2C(=O)Nc2ccc(CNC(=O)OCc3cccnc3)cc2)CC1 records IC50 below 5 µM.
N

Identify whether the molecule CS(=O)(=O)N1CCN(c2ccccc2C(=O)Nc2ccc(CNC(=O)OCc3cccnc3)cc2)CC1 records IC50 below 5 µM.
N

Identify whether the molecule COCCN1CCN(c2cc(F)ccc2C(=O)Nc2ccc(CNC(=O)OCc3cccnc3)cc2)CC1 records IC50 below 5 µM.
Y

Identify whether the molecule Nc1ccccc1NC(=O)c1ccc(CNC(=O)OCc2cccnc2)cc1 [ENTINOSTAT] records IC50 below 5 µM.
N

Identify whether the molecule COCCN1CCN(c2ccc(OC)cc2C(=O)Nc2ccc(CNC(=O)OCc3cccnc3)cc2)CC1 records IC50 below 5 µM.
N

Identify whether the molecule COCCN1CCN(c2c(C)cccc2C(=O)Nc2ccc(CNC(=O)OCc3cccnc3)cc2)CC1 records IC50 below 5 µM.
N

----------
Task for the reader: assign each of the following compounds its reported pIC50.
Tested on: U-251
experiment: Antiproliferative activity against human U-251 cells assessed as inhibition of cell proliferation measured after 72 hrs by CCK8 assay
Assay type: functional, cell-based
recorded conditions: U-251, 72 h
In plain terms, pIC50 is the concentration in mol/L turned into minus its base-10 logarithm.

Tested system U-251; pIC50 recorded for O=C(NCc1ccc(NC(=O)c2ccccc2N2CCN(CCF)CC2)cc1)OCc1cccnc1 was 5.23

Tested system U-251; pIC50 recorded for COCCN1CCN(c2ccc(C)cc2C(=O)Nc2ccc(CNC(=O)OCc3cccnc3)cc2)CC1 was 4.90

Tested system U-251; pIC50 recorded for O=C(NCc1ccc(NC(=O)c2ccccc2N2CCN(CC3CC3)CC2)cc1)OCc1cccnc1 was 4.97

Tested system U-251; pIC50 recorded for O=C(NCc1ccc(NC(=O)c2ccccc2N2CCN(C3CCC3)CC2)cc1)OCc1cccnc1 was 5.39

Tested system U-251; pIC50 recorded for CCN1CCN(c2ccccc2C(=O)Nc2ccc(CNC(=O)OCc3cccnc3)cc2)CC1 was 5.34

Tested system U-251; pIC50 recorded for O=C(NCc1ccc(NC(=O)c2ccccc2N2CCN(C3CC3)CC2)cc1)OCc1cccnc1 was 5.57

Tested system U-251; pIC50 recorded for CC(C)N1CCN(c2ccccc2C(=O)Nc2ccc(CNC(=O)OCc3cccnc3)cc2)CC1 was 5.22

Tested system U-251; pIC50 recorded for CCCN1CCN(c2ccccc2C(=O)Nc2ccc(CNC(=O)OCc3cccnc3)cc2)CC1 was 5.17

Tested system U-251; pIC50 recorded for O=C(NCc1ccc(NC(=O)c2ccccc2N2CCOCC2)cc1)OCc1cccnc1 was 5.21

Tested system U-251; pIC50 recorded for O=C(NCc1ccc(NC(=O)c2ccccc2N2CCN(CCO)CC2)cc1)OCc1cccnc1 was 5.49

Tested system U-251; pIC50 recorded for O=C(NCc1ccc(NC(=O)c2ccccc2N2CCN(C3COC3)CC2)cc1)OCc1cccnc1 was 5.63

Tested system U-251; pIC50 recorded for CN1CCN(c2ccccc2C(=O)Nc2ccc(CNC(=O)OCc3cccnc3)cc2)CC1 was 5.20

Tested system U-251; pIC50 recorded for COCCN1CCN(c2ccc(Cl)cc2C(=O)Nc2ccc(CNC(=O)OCc3cccnc3)cc2)CC1 was 4.98

Tested system U-251; pIC50 recorded for COCCN1CCN(c2cccc(F)c2C(=O)Nc2ccc(CNC(=O)OCc3cccnc3)cc2)CC1 was 4.60

Tested system U-251; pIC50 recorded for COCCN1CCN(c2ccc(N)cc2C(=O)Nc2ccc(CNC(=O)OCc3cccnc3)cc2)CC1 was 5.40
